Target: T1, recombinant human BCMA-his fusion protein (ACRO Biosystem, Cat. No. BCA-H522y) (human, UniProt Q02223 1-54)
T1 construct: extracellular domain; Bought protein; also called huBCMA-his; hu BCMA-his; not shown: His tag
T1 sequence (looked up): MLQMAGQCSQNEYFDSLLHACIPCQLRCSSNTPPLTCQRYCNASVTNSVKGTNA
Test: SPR (Biacore T200), anti-His capture on CM5, 1:1 fit
endpoint: kon

humanized antibody hu-mAb3 (VH3+VL3) (antibody, V domains shown, human IgG1/kappa named only as preferred) VH: QVQLVQSGAEVKKPGASVKVSCKASGYTITDYNMDWVRQAPGQGLEWIGNINPHNGGSIYNQKFQGRATLTVDKSTSTAYMELSSLRSEDTAVYYCARGDATLVLDYWGQGTTVTVSS VL: DIQLTQSPSSLSASVGDRATITCRASKSVSTSGLSYMHWYQQKPGKAPKVLIYLASNLESGVPARFSGSGSGTDFTLTISSVQPEDFATYYCQHSRELPPTFGQGTKLELK: 5.9e+06 M⁻¹ s⁻¹
humanized antibody hu-mAb2 (VH2+VL2) (antibody, V domains shown, human IgG1/kappa named only as preferred) VH: QVQLVQSGAEVKKPGSSVKVSCKVSGYTFTDHTIHWMKQAPGQGLEWIGYIYPRNGNTKYNEKFKGKATLTADKSTSTAYMELSSLRSEDTAVYFCARYDYDGYFDVWGQGTLVTVSS VL: DVVMTQTPLSLSVTPGQPASISCRSSQSHVHSDGHTYLHWYLQKPGQSPELLIYKVSNRFSGVPDRFSGSGSGTDFTLKISRVEAEDVGVYFCSQNTHFPWTFGGGTKVEIK: 2.24e+07 M⁻¹ s⁻¹
human-mouse chimeric antibody c-mAb2 (antibody, human IgG1, V domains shown, not shown: human IgG1 heavy chain constant region, GenBank No. AK303185.1; human kappa light chain constant region, GenBank No. MG815648.1) VH: QVQLQQSDAELVKPGTSVKISCKVSGYTFTDHTIHWMKQRPEQGLEWIGYIYPRNGNTKYNEKFKGKATLTADKSSSTAYMHLNSLTSEDSAVYFCARYDYDGYFDVWGTGTTVTVSS VL: DVVMTQTPLSLPVSLGDQASISCRSSQSHVHSDGHTYLHWYLQKPGQSPELLIYKVSNRFSGVPDRFSGSGSGTDFTLKISRVEAEDLGVYFCSQNTHFPWTFGGGTKLEIK: 4.68e+07 M⁻¹ s⁻¹

# evaluate next
Exercise: Fill in the blank: the reported kon of human-mouse chimeric antibody c-mAb3 (antibody, human IgG1, V domains shown, not shown: human IgG1 heavy chain constant region, GenBank No. AK303185.1; human kappa light chain constant region, GenBank No. MG815648.1) VH: EVQLQQSGPELVKPGASVKILCKASGYTITDYNMDWVKRSHGKSLEWIGNINPHNGGSIYNQKFKGKATLTVDKSSSTAFMELRSLTSEDTAVYYCARGDATLVLDYWGQGTSLTVSS VL: DIVLTQSPASLAVSLGQRATISCRASKSVSTSGLSYMHWYQQKPGQPPKVLIYLASNLESGVPARFSGSGSGTDFTLNIHPVEEEDAATYYCQHSRELPPTFGAGTKLELK is ____.
Key: 4.69e+06 M⁻¹ s⁻¹
